The measurements presented in this section are drawn from ChEMBL document CHEMBL5360615.

The entries below come with measured EC50 values attached.
# TARGET_OF_ASSAY: Mu-type opioid receptor (Mus musculus, UniProt P42866)
# Sequence (P42866 whole entry, the tested form may be a part): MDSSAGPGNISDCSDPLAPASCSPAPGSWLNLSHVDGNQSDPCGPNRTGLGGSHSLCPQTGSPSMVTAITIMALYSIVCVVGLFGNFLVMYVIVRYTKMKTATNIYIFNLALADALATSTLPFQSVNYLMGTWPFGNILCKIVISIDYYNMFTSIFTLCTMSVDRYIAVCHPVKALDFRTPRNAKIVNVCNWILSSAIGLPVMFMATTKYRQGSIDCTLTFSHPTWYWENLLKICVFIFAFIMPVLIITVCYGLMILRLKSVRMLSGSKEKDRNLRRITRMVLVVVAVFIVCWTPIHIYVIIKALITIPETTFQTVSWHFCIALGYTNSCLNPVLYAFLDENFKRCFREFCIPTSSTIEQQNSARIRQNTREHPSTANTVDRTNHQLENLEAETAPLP
# EXPERIMENTAL_DETAILS: Partial agonist activity at Rluc8 fused mouse MOR transfected in HEK293T cells assessed as Nb33 recruitment using coelenterazine as substrate incubated for 40 mins by BRET assay
# Assay type: functional, cell-based
Dear colleague, please return just the value in µM, with no unit written.

CN(C)C(=O)C(CCN1C[C@H](O)C[C@H]1CN1CCN(c2cccc(Cl)c2Cl)CC1)(c1ccccc1)c1ccccc1 | 3.33
CN(C)C(=O)C(CCN1C[C@H](F)C[C@H]1C(=O)NCCCCN1CCN(c2cccc(C(F)(F)F)n2)CC1)(c1ccccc1)c1ccccc1 | 5.75

We now examine a further molecule.
Query string: Report measured EC50; entry is CN(C)C(=O)C(CCN1CCC(CCN2CCN(c3cccc(Cl)c3Cl)CC2)C1)(c1ccccc1)c1ccccc1 (stereo not drawn)
Result string: 0.658

----------
Record set of pKi for target or system Mu-type opioid receptor (Homo sapiens).
# pKi: negative log10 of molar concentration; output just the value

Worked examples follow.
COc1ccccc1[C@@H]1C[C@H]1NCCC(C(=O)N(C)C)(c1ccccc1)c1ccccc1 (relative stereo) | 7.26
Clc1cccc(N2CCN(CCC3(c4ccccn4)CCOCC3)CC2)c1Cl | 6.16
CN(C)C(=O)C(CCN1C[C@H](O)C[C@H]1C(=O)NCCCCN1CCN(c2cccc(Cl)c2Cl)CC1)(c1ccccc1)c1ccccc1 | 6.25

Query string: Fill in: pKi on Mu-type opioid receptor (Homo sapiens), entry CCC1(CC)CC(OCCCNCc2cccc(C(F)(F)F)n2)(c2ccccn2)CCO1 (centres undefined)
Sequence (P35372 whole entry): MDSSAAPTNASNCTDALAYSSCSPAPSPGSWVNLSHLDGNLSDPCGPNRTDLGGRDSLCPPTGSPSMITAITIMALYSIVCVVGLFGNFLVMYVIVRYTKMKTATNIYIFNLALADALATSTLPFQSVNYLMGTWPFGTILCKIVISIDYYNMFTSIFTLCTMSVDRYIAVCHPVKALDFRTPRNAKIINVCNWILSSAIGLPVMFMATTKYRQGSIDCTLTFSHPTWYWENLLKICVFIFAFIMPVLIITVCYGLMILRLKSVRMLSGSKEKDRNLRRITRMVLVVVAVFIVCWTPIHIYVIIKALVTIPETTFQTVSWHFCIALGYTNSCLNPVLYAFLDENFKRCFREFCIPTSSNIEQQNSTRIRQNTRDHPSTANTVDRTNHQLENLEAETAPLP
Result string: 5.60

----------
# TARGET_OF_ASSAY: Mu-type opioid receptor (Homo sapiens)
Attribute: pKi
Scale for pKi: -log10 of concentration given in mol/L; no unit attached.

CCC1(CC)CC(OCCCN2CCN(c3cccc(C(F)(F)F)n3)CC2)(c2ccccn2)CCO1 (configuration not stated) | 6.13
FC(F)(F)c1cccc(N2CCN(CCC3(c4ccccn4)CCOCC3)CC2)n1 | 5.78
CN(C)C(=O)C(CCN1CCN(c2cccc(C(F)(F)F)n2)CC1)(c1ccccc1)c1ccccc1 | 8.91
CN(C)C(=O)C(CCN1C[C@H](O)C[C@H]1CN1CCN(c2cccc(C(F)(F)F)n2)CC1)(c1ccccc1)c1ccccc1 | 6.11
CN(C)C(=O)C(CCN[C@@H]1C[C@H]1c1ccc(Cl)cc1)(c1ccccc1)c1ccccc1 (relative stereo) | 7.91

Let us examine a further case.
Query string: Answer with the recorded pKi of CCc1cc(Cl)c(OC)c(N2CCN(C[C@@H]3C[C@@H](O)CN3CCC(C(=O)N(C)C)(c3ccccc3)c3ccccc3)CC2)c1 only.
Result string: 6.42

----------
Property: pIC50; scope: individual compounds
# TARGET_OF_ASSAY: D(3) dopamine receptor (Homo sapiens, UniProt P35462)
# Sequence (P35462 whole entry, the tested form may be a part): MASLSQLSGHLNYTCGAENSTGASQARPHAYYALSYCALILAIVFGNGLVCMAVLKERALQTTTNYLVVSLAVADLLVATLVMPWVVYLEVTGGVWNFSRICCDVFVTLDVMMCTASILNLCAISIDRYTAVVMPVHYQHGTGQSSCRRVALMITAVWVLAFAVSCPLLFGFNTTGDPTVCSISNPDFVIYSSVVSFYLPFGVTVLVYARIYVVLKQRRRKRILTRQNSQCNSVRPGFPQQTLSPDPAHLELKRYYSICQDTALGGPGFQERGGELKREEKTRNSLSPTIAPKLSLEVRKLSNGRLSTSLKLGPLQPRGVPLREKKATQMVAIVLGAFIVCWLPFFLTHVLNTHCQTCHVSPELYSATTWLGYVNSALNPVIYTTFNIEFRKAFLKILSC
# EXPERIMENTAL_DETAILS: Antagonist activity at SNAP-tagged human D3R receptor transfected in HEK293T cells coexpressing wild type Galpha-oA, venus-tagged Gbeta-1 (156 to 239 residues), venus-tagged Ggamma2 (1 to 155 residues) and Rluc8 fused masGRK3ct assessed as Galpha-oA activation using coelenterazine as substrate incubated for 40 mins in presence of quinpirole by BRET based GPA assay
Scale note: pIC50 = -log10(concentration in M).

Query string: Give pIC50 for the following compound: Clc1ccc([C@@H]2C[C@H]2NCCC2(c3ccccn3)CCOC3(CCCC3)C2)cc1 (relative stereo)
Result string: 6.57

Query string: Read the entry CN(C)C(=O)C(CCN1C[C@H](F)C[C@H]1C(=O)NCCCCN1CCN(c2nsc3ccccc23)CC1)(c1ccccc1)c1ccccc1 and write its reported pIC50.
Result string: 7.04

Query string: Quickly give me recorded pIC50 for CCc1cc(Cl)c(OC)c(N2CCN(C[C@@H]3C[C@@H](O)CN3CCC(C(=O)N(C)C)(c3ccccc3)c3ccccc3)CC2)c1
Result string: 5.53
